These data points were gathered from ChEMBL document CHEMBL1141509.

- System under test: RAC-alpha serine/threonine-protein kinase (Homo sapiens, UniProt P31749)
- Sequence (P31749 whole entry): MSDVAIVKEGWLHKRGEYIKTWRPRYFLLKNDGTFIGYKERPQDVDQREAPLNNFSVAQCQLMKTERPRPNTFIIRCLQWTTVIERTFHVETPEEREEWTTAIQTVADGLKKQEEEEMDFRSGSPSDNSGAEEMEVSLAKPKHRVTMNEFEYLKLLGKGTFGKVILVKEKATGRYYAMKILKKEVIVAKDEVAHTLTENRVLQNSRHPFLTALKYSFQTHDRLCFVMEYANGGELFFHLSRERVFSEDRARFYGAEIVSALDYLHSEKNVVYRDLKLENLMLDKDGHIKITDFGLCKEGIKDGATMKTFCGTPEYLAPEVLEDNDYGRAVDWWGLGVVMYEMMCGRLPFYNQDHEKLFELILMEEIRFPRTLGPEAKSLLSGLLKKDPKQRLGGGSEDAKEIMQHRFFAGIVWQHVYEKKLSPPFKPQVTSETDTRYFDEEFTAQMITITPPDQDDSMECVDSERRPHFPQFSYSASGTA
- Measurement protocol: Inhibition of Akt1
Reported IC50 by item:
Give the quantity in nM, number only.

Worked examples, 5 compounds total:
Structure	Quantity unit	Readout value
CSc1ncc2cc(-c3ccccc3)c(-c3ccc(CNCCCN4CCN(C)CC4)cc3)nc2n1	nM	765
CSc1ncc2cc(-c3ccccc3)c(-c3ccc(CN4CCC(NC(=O)CNC(C)=O)CC4)cc3)nc2n1	nM	286
CSc1ncc2cc(-c3ccccc3)c(-c3ccc(CNCCc4nnc(N)s4)cc3)nc2n1	nM	46
CSc1ncc2cc(-c3ccccc3)c(-c3ccc(CN4CCC(C(N)=O)CC4)cc3)nc2n1	nM	29
CSc1ncc2cc(-c3ccccc3)c(-c3ccc(CNCCC(=O)c4ccccc4N)cc3)nc2n1	nM	15

Could you now look at the following compound, please?
Which IC50 is listed for "CSc1ncc2cc(-c3ccccc3)c(-c3ccc(CNCCc4nccs4)cc3)nc2n1" ?
198

###

- System under test: RAC-beta serine/threonine-protein kinase (Homo sapiens)
- Sequence (P31751 whole entry): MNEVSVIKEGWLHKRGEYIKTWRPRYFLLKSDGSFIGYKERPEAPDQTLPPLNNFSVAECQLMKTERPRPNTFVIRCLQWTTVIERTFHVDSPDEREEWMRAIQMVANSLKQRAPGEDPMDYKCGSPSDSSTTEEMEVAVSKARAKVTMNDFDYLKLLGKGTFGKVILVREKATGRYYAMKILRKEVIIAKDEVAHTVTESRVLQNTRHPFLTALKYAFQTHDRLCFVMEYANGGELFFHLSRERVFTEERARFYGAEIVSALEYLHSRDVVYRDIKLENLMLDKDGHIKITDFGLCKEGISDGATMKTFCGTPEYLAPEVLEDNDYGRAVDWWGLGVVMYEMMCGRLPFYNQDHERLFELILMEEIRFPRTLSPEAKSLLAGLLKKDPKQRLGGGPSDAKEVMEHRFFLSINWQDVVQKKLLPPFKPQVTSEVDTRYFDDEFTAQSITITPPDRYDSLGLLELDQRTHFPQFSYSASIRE
- Measurement protocol: Inhibition of Akt2 in human C33A cells by immunoprecipitation kinase assay
- Type: cell-based, C-33-A
Reported IC50 by item:
Give the quantity in nM, number only.

Structure	Quantity unit	IC50
CNc1ncc2cc(-c3ccccc3)c(-c3ccc(CN4CCC(c5nnc(-c6ccccn6)[nH]5)CC4)cc3)nc2n1	nM	899
CSc1ncc2cc(-c3ccccc3)c(-c3ccc(CN4CCC(C(=O)Nc5ccncc5)CC4)cc3)nc2n1	nM	1130

Could you now look at the following compound, please?
Which IC50 is listed for "CSc1ncc2cc(-c3ccccc3)c(-c3ccc(CN4CCC(n5ncc6c(N)ncnc65)CC4)cc3)nc2n1" ?
828

###

Reported IC50 by item:
- System under test: RAC-alpha serine/threonine-protein kinase (Homo sapiens)
- Measurement protocol: Inhibition of Akt1
Give the quantity in nM, number only.

Structure	Quantity unit	IC50
CNc1ncc2cc(-c3ccccc3)c(-c3ccc(CN4CCC(c5nnc(-c6ccccn6)[nH]5)CC4)cc3)nc2n1	nM	6
CSc1ncc2cc(-c3ccccc3)c(-c3ccc(CN4CCC(c5nnc(-c6ccccn6)[nH]5)CC4)cc3)nc2n1	nM	3.8

Could you now look at the following molecule, please?
Which IC50 is listed for "CSc1ncc2cc(-c3ccccc3)c(-c3ccc(CNCCc4nc[nH]n4)cc3)nc2n1" ?
139
